experimental.system: unphosphorylated HGFR (Homo sapiens, UniProt P08581)
Construct: The cDNA corresponding to residues 1051-1349 of the HGFR kinase catalytic domain (HGFRkd) was cloned into a pFastBac plasmid; added N-terminal methionine (start codon of the NcoI site) (N)
Sequence (P08581 1051-1349): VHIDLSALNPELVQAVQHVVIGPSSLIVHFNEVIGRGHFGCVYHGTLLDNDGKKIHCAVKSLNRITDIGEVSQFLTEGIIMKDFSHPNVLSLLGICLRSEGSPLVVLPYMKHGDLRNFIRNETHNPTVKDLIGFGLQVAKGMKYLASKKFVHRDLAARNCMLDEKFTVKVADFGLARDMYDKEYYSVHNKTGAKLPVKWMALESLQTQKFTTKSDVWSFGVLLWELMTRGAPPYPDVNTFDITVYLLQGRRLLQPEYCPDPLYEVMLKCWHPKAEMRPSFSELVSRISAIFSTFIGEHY
test.description: Coupled enzymatic (PK/LDH) kinase assay, unphosphorylated HGFR
condition.label: coupled enzymatic format; 0.375 mM ATP; data fit to equation for competitive inhibition; read-out: inhibition (HGFR/CE format)
property.name: Ki (nM)

{"smiles": "O=C1Nc2ccc3ncsc3c2/C1=C/Nc1ccc(S(=O)(=O)NCCOCCO)cc1", "unit.abbreviation": "nM", "result.value": 500}
